Listing: IC50 of selected molecules
Biological target: Human Calpain 9/NS1 (Homo sapiens)
Sequence (O14815 1-690): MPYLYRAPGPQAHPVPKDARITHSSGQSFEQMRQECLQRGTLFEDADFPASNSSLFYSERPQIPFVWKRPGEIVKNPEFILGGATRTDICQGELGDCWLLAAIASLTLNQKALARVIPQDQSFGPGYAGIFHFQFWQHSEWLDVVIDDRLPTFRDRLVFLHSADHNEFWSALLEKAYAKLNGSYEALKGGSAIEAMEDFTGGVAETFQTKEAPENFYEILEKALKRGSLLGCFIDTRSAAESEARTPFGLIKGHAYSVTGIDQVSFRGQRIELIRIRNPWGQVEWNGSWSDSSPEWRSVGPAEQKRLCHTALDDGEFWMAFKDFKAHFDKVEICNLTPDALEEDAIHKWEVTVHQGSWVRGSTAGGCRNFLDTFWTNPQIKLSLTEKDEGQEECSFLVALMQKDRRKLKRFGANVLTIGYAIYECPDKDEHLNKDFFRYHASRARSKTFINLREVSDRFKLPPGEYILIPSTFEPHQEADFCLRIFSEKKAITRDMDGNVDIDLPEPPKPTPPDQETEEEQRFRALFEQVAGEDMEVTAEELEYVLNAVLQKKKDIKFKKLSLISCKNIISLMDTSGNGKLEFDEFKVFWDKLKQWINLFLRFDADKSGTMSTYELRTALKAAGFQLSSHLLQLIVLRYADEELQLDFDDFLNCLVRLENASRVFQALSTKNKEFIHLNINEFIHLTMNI
Sequence (P04632 1-268 partner): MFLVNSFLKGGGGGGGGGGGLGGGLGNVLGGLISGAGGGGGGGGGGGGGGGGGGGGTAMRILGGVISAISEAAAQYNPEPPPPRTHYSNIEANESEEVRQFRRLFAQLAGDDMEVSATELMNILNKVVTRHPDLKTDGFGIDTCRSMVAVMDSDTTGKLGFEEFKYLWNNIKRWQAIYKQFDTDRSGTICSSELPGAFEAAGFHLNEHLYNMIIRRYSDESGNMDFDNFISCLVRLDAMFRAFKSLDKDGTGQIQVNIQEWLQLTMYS
Assay: Biochemical inhibition of calpain 9, continuous fluorescence (FRET substrate) assay
Settings: mean; read-out: Human Calpain 9/NS1 IC50 (nM)_MEAN

Would you please look over these solved cases?
[[record]]
molecule = "Cc1ccc(F)c(C(=O)NC(C=O)Cc2ccccc2)c1Cl (stereo not drawn)"
endpoint = "IC50"
endpoint_result = "< 3000 nM"

[[record]]
molecule = "Cc1cccc(C(=O)NC(Cc2ccccc2)C(=O)C(N)=O)c1C (stereo not drawn)"
endpoint = "IC50"
endpoint_result = "< 3000 nM"

[[record]]
molecule = "Cn1c2ccccc2c2cccc(C(=O)NC(Cc3ccccc3)C(=O)C(N)=O)c21 (stereo not drawn)"
endpoint = "IC50"
endpoint_result = "< 3000 nM"

[[record]]
molecule = "O=CC(Cc1ccccc1)NC(=O)c1cccc2c1oc1ccccc12 (stereo not drawn)"
endpoint = "IC50"
endpoint_result = "3000 to 10000 nM"

[[record]]
molecule = "NC(=O)C(=O)C(Cc1ccccc1)NC(=O)C1c2ccccc2-c2ccccc21 (stereo not drawn)"
endpoint = "IC50"
endpoint_result = "> 10000 nM"

[[record]]
molecule = "O=CC(Cc1ccccc1)NC(=O)c1c(F)cccc1F (stereo not drawn)"
endpoint = "IC50"
endpoint_result = "< 3000 nM"

[[record]]
molecule = "COc1ccc(F)c(C(=O)NC(C=O)Cc2ccccc2)c1Cl (stereo not drawn)"
endpoint = "IC50"
endpoint_result = "< 3000 nM"

[[record]]
molecule = "O=CC(Cc1ccccc1)NC(=O)c1cccc2c1Oc1ccccc1O2 (stereo not drawn)"
endpoint = "IC50"
endpoint_result = "< 3000 nM"


Prompt line: Given the molecule NC(=O)C(=O)[C@H](Cc1ccccc1)NC(=O)c1c(C(F)(F)F)ccc(Cl)c1F , what is its reported IC50?
Response line: < 3000 nM

Prompt line: Given the molecule NC(=O)C(=O)C(Cc1ccccc1)NC(=O)c1cccc2c1oc1ccccc12 (stereo not drawn) , what is its reported IC50?
Response line: < 3000 nM

Prompt line: Given the molecule COc1ccc(F)c(C(=O)N[C@@H](Cc2ccccc2)C(=O)C(N)=O)c1Cl , what is its reported IC50?
Response line: < 3000 nM

Prompt line: Given the molecule NC(=O)C(=O)[C@H](Cc1ccccc1)NC(=O)c1ccc(F)cc1 [Compound 28] , what is its reported IC50?
Response line: 3000 to 10000 nM

Prompt line: Given the molecule O=CC(Cc1ccccc1)NC(=O)c1c(Cl)ccc2ccccc12 (stereo not drawn) , what is its reported IC50?
Response line: < 3000 nM
